tested on: SARS-CoV; assay: Inhibitory activity against SARS coronavirus FFMI replication in Caco-2 cells; assay type: functional, organism-based; settings: Severe acute respiratory syndrome-related coronavirus
Square brackets hold non-standard residues; d marks the D form. Peptide text beside a SMILES is read from it. * marks the point of attachment. ξ: configuration not given here. Ile(3ξ) = CCC(C)[C@H](N)C(=O)O; ξE = NC(CCC(=O)O)C(=O)O; Cbz = O=C(OCc1ccccc1)*; CH2F = FC*
Property Name: EC50 (µM)
Use µM as the unit, but write only the number.

For orientation, consider the following solved cases.
Compound	Unit Of Measurement	EC50
CC(C)[C@H](NC(=O)OCc1ccccc1)C(=O)NC(CCC(=O)N(C)C)C(=O)CF (stereo partly drawn) (Cbz-Val-[ξE](NMe2)-CH2F)	µM	12.6
CCC(C)[C@H](NC(=O)OCc1ccccc1)C(=O)NC(CCC(=O)N(C)C)C(=O)CF (stereo partly specified) (Cbz-[Ile(3ξ)]-[ξE](NMe2)-CH2F)	µM	8.8

Would you kindly look at the next entry?
Record summary for CC(C)C[C@H](NC(=O)OCc1ccccc1)C(=O)NC(CCC(=O)N(C)C)C(=O)CF (stereo partly drawn) (Cbz-Leu-[ξE](NMe2)-CH2F) : reported EC50 = 2.4
